- TEST DETAILS: Distribution coefficient, log D of the compound in buffer/octanol solution by shake-flask method
- Type: physicochemical
QUANTITY NAME: logD
Respond using a number only.

Here are 4 compounds together with their reported answers.
Cc1c[nH]c2ncnc(O[C@H]3CC[C@H](N4CCOCC4)CC3)c12    2.6
Cc1c[nH]c2ncnc(O[C@H]3CC[C@H](N4C[C@H]5C[C@@H]4CO5)CC3)c12    1.8
Cc1c[nH]c2ncnc(O[C@H]3CC[C@H](N4C[C@@H]5C[C@H]4CO5)CC3)c12    2
Cc1c[nH]c2ncnc(O[C@H]3CC[C@H](N4CCO[C@H](C)C4)CC3)c12    3.1

Read the next record carefully.
Data point: Cc1c[nH]c2ncnc(O[C@H]3CC[C@H](N4CCO[C@@H](C)C4)CC3)c12 ; logD = 3
